test system: HEp-2; test: Effect on vacuole response in the HEp-2 cells; assay type: functional, Homo sapiens
valueKind: Vacuole response

The recorded Vacuole response for entry CC(C)C[C@@H]1OC(=O)[C@H](C(C)C)NC(=O)[C@@H](C(C)C)OC(=O)[C@@H](C)NC(=O)[C@H](CC(C)C)OC(=O)[C@H](C(C)C)NC(=O)[C@@H](C(C)C)OC(=O)[C@@H](C)NC(=O)[C@H](CC(C)C)OC(=O)[C@H](C(C)C)NC(=O)[C@@H](C(C)C)OC(=O)[C@@H](C)NC1=O (stereo in doubt; form 1) equals 5 ng/mL

// recorded Vacuole response for CC(C)C[C@@H]1OC(=O)[C@H](C(C)C)NC(=O)[C@@H](C(C)C)OC(=O)[C@@H](C)NC(=O)[C@H](CC(C)C)OC(=O)[C@H](C(C)C)NC(=O)[C@@H](C(C)C)OC(=O)[C@@H](C)NC(=O)[C@H](CC(C)C)OC(=O)[C@H](C(C)C)NC(=O)[C@@H](C(C)C)OC(=O)[C@@H](C)NC1=O (stereo in doubt; form 2) : 3 ng/mL

Short answer for CC(C)C[C@@H](OC(=O)[C@@H](NC(=O)[C@@H](O)C(C)C)C(C)C)C(=O)N[C@H](C)C(=O)O[C@H](C(=O)N[C@H](C(=O)O[C@H](CC(C)C)C(=O)N[C@H](C)C(=O)O[C@H](C(=O)N[C@H](C(=O)O[C@H](CC(C)C)C(=O)N[C@H](C)C(=O)O)C(C)C)C(C)C)C(C)C)C(C)C : Vacuole response was 12000 ng/mL

Vacuole response for CC(=O)OC[C@@H](C)NC(=O)[C@@H](CC(C)C)OC(=O)[C@@H](NC(=O)[C@@H](OC(=O)[C@@H](C)NC(=O)[C@@H](CC(C)C)OC(=O)[C@@H](NC(=O)[C@@H](OC(=O)[C@@H](C)NC(=O)[C@@H](CC(C)C)OC(=O)[C@@H](NC(=O)[C@@H](OC(C)=O)C(C)C)C(C)C)C(C)C)C(C)C)C(C)C)C(C)C is >20000 ng/mL
